The binders listed here are annotated with their log10(kon).
Biological target: bacteriophage T5 empty expanded capsid (without pb10) (bacteriophage T5)
Sequence (Q6QGD8 160-458 limits assumed, chain 1 of 2): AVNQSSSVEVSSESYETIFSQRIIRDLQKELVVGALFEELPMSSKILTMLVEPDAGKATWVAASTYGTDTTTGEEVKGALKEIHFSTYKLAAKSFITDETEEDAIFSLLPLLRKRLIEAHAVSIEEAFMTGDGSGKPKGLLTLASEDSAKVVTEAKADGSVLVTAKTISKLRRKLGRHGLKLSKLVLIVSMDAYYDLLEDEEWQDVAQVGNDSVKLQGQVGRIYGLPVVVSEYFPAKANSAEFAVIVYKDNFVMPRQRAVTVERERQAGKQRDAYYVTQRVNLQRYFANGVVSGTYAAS
Sequence (Q6QGD5 11-403 limits assumed, chain 2 of 2, further chain): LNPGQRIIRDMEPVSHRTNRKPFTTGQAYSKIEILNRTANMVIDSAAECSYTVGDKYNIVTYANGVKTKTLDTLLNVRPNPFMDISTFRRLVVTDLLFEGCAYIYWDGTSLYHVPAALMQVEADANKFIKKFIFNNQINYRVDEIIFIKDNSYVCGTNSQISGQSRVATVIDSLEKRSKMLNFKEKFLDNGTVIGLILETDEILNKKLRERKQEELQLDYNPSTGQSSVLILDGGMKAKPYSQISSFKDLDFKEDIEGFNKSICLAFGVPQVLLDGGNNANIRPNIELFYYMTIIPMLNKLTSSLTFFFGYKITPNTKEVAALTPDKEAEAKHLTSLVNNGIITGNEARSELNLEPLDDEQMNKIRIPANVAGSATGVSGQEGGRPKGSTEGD
Test: SPR; T200, 25 °C, PBS (137 mM NaCl) with 1 mg/mL BSA; expanded capsids captured on a CM5 chip through immobilised rabbit anti-capsid antibodies; pb10 variants 0.09 to 40 nM injected at 50 uL/min; koff set at 2 x 10^-4 s^-1 for all proteins; global fit to a Langmuir mass transport-limited model
Heads up, the numbers here are log10 of kon in M⁻¹ s⁻¹ units.

- BINDER: "pb10 F36A-R38A (natural protein) MIDYSGLRTIFGEKLPESHIFFATVAAHKYVPSYAALARELGLSSAHTNRKVWKKFVEAYGKAIPPAPPAPPLTLSKDLTASMSVEEGAALTLSVTATGGTGPYTYAWTKDGSPIPDASGATYTKPTAAAEDAGSYKVTVTDSKQVSKDSTTCAVTVNPTVPGG"
  log10(kon): 7.79
- BINDER: "decoration protein pb10 of bacteriophage T5, full-length, fused to a C-terminal histidine tag (natural protein, UniProt Q6QGD6 1-164, looked up, decoration protein pb10 of bacteriophage T5, 164 amino acids, GenBank AAU05286; Monomer by SEC-MALLS (17 kDa); 18.3 kDa with the His tag; also called pb10-His; His-tagged pb10; source: pET28b expression vector, purified (expression and purification detailed in SI); not shown: His-Tag, C-terminal, kept) MIDYSGLRTIFGEKLPESHIFFATVAAHKYVPSYAFLRRELGLSSAHTNRKVWKKFVEAYGKAIPPAPPAPPLTLSKDLTASMSVEEGAALTLSVTATGGTGPYTYAWTKDGSPIPDASGATYTKPTAAAEDAGSYKVTVTDSKQVSKDSTTCAVTVNPTVPGG"
  log10(kon): 8.26
- BINDER: "pb10 F36A (natural protein) MIDYSGLRTIFGEKLPESHIFFATVAAHKYVPSYAALRRELGLSSAHTNRKVWKKFVEAYGKAIPPAPPAPPLTLSKDLTASMSVEEGAALTLSVTATGGTGPYTYAWTKDGSPIPDASGATYTKPTAAAEDAGSYKVTVTDSKQVSKDSTTCAVTVNPTVPGG"
  log10(kon): 8.94

Fill in reported log10(kon) for this entry: pb10 Y34A-R38E (natural protein) MIDYSGLRTIFGEKLPESHIFFATVAAHKYVPSAAFLERELGLSSAHTNRKVWKKFVEAYGKAIPPAPPAPPLTLSKDLTASMSVEEGAALTLSVTATGGTGPYTYAWTKDGSPIPDASGATYTKPTAAAEDAGSYKVTVTDSKQVSKDSTTCAVTVNPTVPGG 5.62

Fill in reported log10(kon) for this entry: pb10 R38E (natural protein) MIDYSGLRTIFGEKLPESHIFFATVAAHKYVPSYAFLERELGLSSAHTNRKVWKKFVEAYGKAIPPAPPAPPLTLSKDLTASMSVEEGAALTLSVTATGGTGPYTYAWTKDGSPIPDASGATYTKPTAAAEDAGSYKVTVTDSKQVSKDSTTCAVTVNPTVPGG 7.93

Fill in reported log10(kon) for this entry: pb10 N-terminal domain (NTD), residues 1 to 77 (domain or fragment) MIDYSGLRTIFGEKLPESHIFFATVAAHKYVPSYAFLRRELGLSSAHTNRKVWKKFVEAYGKAIPPAPPAPPLTLSK 8.56

Fill in reported log10(kon) for this entry: pb10 R38A (natural protein) MIDYSGLRTIFGEKLPESHIFFATVAAHKYVPSYAFLARELGLSSAHTNRKVWKKFVEAYGKAIPPAPPAPPLTLSKDLTASMSVEEGAALTLSVTATGGTGPYTYAWTKDGSPIPDASGATYTKPTAAAEDAGSYKVTVTDSKQVSKDSTTCAVTVNPTVPGG 8.08

Fill in reported log10(kon) for this entry: pb10 F36A-R38E (natural protein) MIDYSGLRTIFGEKLPESHIFFATVAAHKYVPSYAALERELGLSSAHTNRKVWKKFVEAYGKAIPPAPPAPPLTLSKDLTASMSVEEGAALTLSVTATGGTGPYTYAWTKDGSPIPDASGATYTKPTAAAEDAGSYKVTVTDSKQVSKDSTTCAVTVNPTVPGG 7.29
